# credit: patent US20220017630A1

Target: T1, Human TNFR2 recombinant protein (Sino 10417-H08H) (human, UniProt P20333 23-257)
T1 construct: also called hTNFR2 (His tag)
T1 sequence (looked up): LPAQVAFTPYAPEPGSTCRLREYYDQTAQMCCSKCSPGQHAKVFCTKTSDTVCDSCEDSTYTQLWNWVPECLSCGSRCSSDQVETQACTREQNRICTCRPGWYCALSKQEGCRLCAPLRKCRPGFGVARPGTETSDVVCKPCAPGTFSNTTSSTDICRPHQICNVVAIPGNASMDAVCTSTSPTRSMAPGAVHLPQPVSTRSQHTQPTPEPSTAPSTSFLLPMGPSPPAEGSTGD
Test: ELISA, coated antigen 0.5 ug/ml, antibody 28 ng/ml
Exercise: state measured ELISA OD for each of the binders provided.
Express your answer in OD, writing the number without its unit.

The value of ELISA OD measured for the binder TNFR2 antibody #001 (antibody, V domains shown, also called antibody #1) VH: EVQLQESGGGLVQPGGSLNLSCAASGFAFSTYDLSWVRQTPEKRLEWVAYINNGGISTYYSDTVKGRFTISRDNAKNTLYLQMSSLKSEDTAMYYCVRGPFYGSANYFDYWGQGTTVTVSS VL: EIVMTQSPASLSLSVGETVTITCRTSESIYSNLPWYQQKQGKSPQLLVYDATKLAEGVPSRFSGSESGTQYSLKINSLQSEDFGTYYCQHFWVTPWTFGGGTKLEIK turned out to be 2.81

The value of ELISA OD measured for the binder TNFR2 antibody #365 (antibody, V domains shown) VH: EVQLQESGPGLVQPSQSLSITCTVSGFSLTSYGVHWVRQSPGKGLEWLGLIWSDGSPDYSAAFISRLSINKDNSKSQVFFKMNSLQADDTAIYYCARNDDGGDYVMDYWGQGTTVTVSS VL: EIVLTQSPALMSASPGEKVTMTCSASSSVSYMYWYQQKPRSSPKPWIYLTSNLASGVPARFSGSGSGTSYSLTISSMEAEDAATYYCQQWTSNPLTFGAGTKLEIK turned out to be 3.19

The value of ELISA OD measured for the binder TNFR2 antibody #224 (antibody, V domains shown) VH: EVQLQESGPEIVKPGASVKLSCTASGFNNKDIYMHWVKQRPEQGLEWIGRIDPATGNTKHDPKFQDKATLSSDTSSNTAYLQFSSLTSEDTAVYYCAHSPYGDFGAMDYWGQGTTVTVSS VL: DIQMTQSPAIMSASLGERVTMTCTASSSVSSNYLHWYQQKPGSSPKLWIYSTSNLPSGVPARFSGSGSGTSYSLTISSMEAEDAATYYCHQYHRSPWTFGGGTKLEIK turned out to be 2.23

The value of ELISA OD measured for the binder TNFR2 antibody #352 (antibody, V domains shown) VH: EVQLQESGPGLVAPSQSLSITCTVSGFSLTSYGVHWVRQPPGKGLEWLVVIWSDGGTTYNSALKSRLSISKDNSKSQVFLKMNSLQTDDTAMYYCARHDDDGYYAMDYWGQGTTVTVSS VL: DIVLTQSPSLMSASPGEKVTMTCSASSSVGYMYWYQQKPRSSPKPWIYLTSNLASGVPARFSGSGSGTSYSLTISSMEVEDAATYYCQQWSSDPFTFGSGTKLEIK turned out to be 3.12

The value of ELISA OD measured for the binder TNFR2 antibody #395 (antibody, V domains shown) VH: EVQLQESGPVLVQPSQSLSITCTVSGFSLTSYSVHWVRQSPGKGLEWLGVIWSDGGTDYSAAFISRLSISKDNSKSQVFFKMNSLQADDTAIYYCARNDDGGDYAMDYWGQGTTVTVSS VL: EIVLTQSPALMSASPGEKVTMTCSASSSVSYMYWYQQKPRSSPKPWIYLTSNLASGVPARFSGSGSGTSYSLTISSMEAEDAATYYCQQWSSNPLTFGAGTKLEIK turned out to be 3.17

The value of ELISA OD measured for the binder TNFR2 antibody #226 (antibody, V domains shown) VH: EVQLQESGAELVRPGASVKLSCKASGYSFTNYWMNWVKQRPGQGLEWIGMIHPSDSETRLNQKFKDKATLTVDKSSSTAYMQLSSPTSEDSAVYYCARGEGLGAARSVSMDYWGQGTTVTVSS VL: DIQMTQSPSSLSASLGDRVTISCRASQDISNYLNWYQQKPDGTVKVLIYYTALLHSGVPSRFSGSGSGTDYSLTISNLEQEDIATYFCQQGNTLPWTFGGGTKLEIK turned out to be 3.34

The value of ELISA OD measured for the binder TNFR2 antibody #125 (antibody, V domains shown) VH: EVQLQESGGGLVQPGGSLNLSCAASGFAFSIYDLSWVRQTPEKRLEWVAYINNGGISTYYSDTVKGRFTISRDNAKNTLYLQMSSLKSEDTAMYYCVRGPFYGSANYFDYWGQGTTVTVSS VL: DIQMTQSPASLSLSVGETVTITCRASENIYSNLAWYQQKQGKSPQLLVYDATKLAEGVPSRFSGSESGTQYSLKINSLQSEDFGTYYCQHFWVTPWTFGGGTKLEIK turned out to be 3.32

The value of ELISA OD measured for the binder TNFR2 antibody #133 (antibody, V domains shown) VH: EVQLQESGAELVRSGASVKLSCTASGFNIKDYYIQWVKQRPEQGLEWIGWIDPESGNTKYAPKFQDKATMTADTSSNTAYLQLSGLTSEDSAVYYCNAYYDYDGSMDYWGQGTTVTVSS VL: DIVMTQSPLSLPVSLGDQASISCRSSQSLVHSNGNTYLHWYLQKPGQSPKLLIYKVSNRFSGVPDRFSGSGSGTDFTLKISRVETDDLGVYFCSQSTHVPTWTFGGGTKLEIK turned out to be 3.12

The value of ELISA OD measured for the binder TNFR2 antibody #219 (antibody, V domains shown) VH: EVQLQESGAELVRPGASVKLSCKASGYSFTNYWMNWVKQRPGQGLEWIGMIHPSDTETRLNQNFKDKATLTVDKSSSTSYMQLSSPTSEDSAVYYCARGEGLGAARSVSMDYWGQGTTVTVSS VL: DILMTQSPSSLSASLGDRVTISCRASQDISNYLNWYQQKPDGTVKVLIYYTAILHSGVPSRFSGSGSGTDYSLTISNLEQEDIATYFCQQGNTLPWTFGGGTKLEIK turned out to be 3.37
